test system: XIP peptide (Xip251-270) binding; test: small-molecule binders of XIP peptide, primary screen, biochemical, small-molecule microarray, fluorescence 635/667 nm, 0.1 µg/mL protein (AID 1182); settings: fluorescent protein binding, 635 nm, higher = more signal, called active from +8 up or from −8 down
Endpoint label: composite z-score

[[record]]
molecule = "COC(=O)C1=CC(CCCO)=CC(C)N(Cc2cccc(OC(F)(F)F)c2)C=C1C(=O)OC (stereo not drawn)"
target_entity = "XIP peptide (Xip251-270) binding"
endpoint_label = "composite z-score"
quantitative_result = 0.0257

[[record]]
molecule = "O=C1C2C=CC(C(O)C=Cc3ccc([N+](=O)[O-])cc3)N(Nc3ccccc3)C2C(=O)N1c1ccccc1 (stereo not drawn)"
target_entity = "XIP peptide (Xip251-270) binding"
endpoint_label = "composite z-score"
quantitative_result = -0.375

[[record]]
molecule = "C=CCNC(=O)[C@@H]1[C@H]2C(=O)O[C@H](c3ccccc3)[C@H](c3ccccc3)N2[C@H](c2ccc(OCCO)cc2)[C@@]12C(=O)N(C(=O)OCCOC)c1ccc(C#CCCO)cc12"
target_entity = "XIP peptide (Xip251-270) binding"
endpoint_label = "composite z-score"
quantitative_result = 0.649

[[record]]
molecule = "CC(C)OC(=O)CC(=O)CC(O)c1ccc([N+](=O)[O-])cc1 (stereo not drawn)"
target_entity = "XIP peptide (Xip251-270) binding"
endpoint_label = "composite z-score"
quantitative_result = 0.319

[[record]]
molecule = "O=C(CS)NCCCCCCNC(=O)[C@@H]1C[C@@H]2C(=O)NCC(=O)N2[C@@H]1c1ccc(O)cc1"
target_entity = "XIP peptide (Xip251-270) binding"
endpoint_label = "composite z-score"
quantitative_result = 1.06

[[record]]
molecule = "C=CCN1C(=O)[C@@]2(O[C@@H](CCO)[C@H]([Si](C)(C)c3ccc(OC)cc3)[C@H]2C)c2cc(N3CCOC3=O)ccc21"
target_entity = "XIP peptide (Xip251-270) binding"
endpoint_label = "composite z-score"
quantitative_result = 0.341

[[record]]
molecule = "CCCNC(=O)[C@@]1(Sc2ccc(C)cc2)CC(=O)N(C(C)C)[C@@H]1c1ccc(CO)cc1I"
target_entity = "XIP peptide (Xip251-270) binding"
endpoint_label = "composite z-score"
quantitative_result = 1.51

[[record]]
molecule = "C=C(/C(=C/C[C@@H](OC(=O)c1ccncc1)c1cccc(OCCO)c1)c1cnc2ccccc2c1)C(C)C"
target_entity = "XIP peptide (Xip251-270) binding"
endpoint_label = "composite z-score"
quantitative_result = 0.601


====

Measured composite z-score by item
assay: binders of probe aFST on microarray, primary screen, stem cell growth factor project, biochemical, small-molecule microarray, fluorescence 635/667 (AID 1086); conditions: higher = more signal;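 also: score merges 667 nm fluorescence with signal-to-noise of each printed compound spot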
Endpoint label: composite z-score

[[record]]
molecule = "CCCNC(=O)[C@@]1(C)c2ccccc2C(=O)N(Cc2ccccc2)[C@H]1c1ccc(CO)cc1"
endpoint_label = "composite z-score"
quantitative_result = 0.476

[[record]]
molecule = "CCOC(=O)C=Cc1cc(F)ccc1O"
endpoint_label = "composite z-score"
quantitative_result = -0.0919

[[record]]
molecule = "CN(C)C(=O)[C@@]1(CCC(=O)OC(C)(C)C)N=C(c2ccc(OCCCO)cc2)O[C@H]1c1ccccc1CN=[N+]=[N-]"
endpoint_label = "composite z-score"
quantitative_result = 0.717

[[record]]
molecule = "[N-]=[N+]=NCc1ccccc1[C@H]1OC(c2ccc(OCCCO)cc2)=N[C@@]1(Cc1ccccc1)C(=O)NCCN1CCOCC1"
endpoint_label = "composite z-score"
quantitative_result = 0.213

[[record]]
molecule = "CC(C)C[C@@H]1NC(=O)[C@@]23C(=O)N[C@@H](Cc4ccccc4)C2[C@H](C)[C@@]2(C)O[C@H]2C3/C=C/C/C=C\\CNC(=O)[C@@H](C)NC1=O (stereo not given in full)"
endpoint_label = "composite z-score"
quantitative_result = -0.414

[[record]]
molecule = "O=c1cccc(-c2ccc(F)cc2)o1"
endpoint_label = "composite z-score"
quantitative_result = 0.552

[[record]]
molecule = "CN1C(=O)C2C=CC(C(O)c3cc(C(F)(F)F)cc(C(F)(F)F)c3)N(NC(=O)OC(C)(C)C)C2C1=O (stereo not given)"
endpoint_label = "composite z-score"
quantitative_result = 1.52

[[record]]
molecule = "Cc1ccc([C@H]2C(C(=O)O)=C[C@@H](C(C)(C)C)N2S(=O)(=O)c2ccc(C)cc2)cc1"
endpoint_label = "composite z-score"
quantitative_result = 0.734

[[record]]
molecule = "COCCOC(=O)N1C(=O)[C@@]2(c3cc(C#CCC(C(=O)OC)C(=O)OC)ccc31)[C@H](c1ccc(O)cc1)N1[C@H](c3ccccc3)[C@H](c3ccccc3)OC(=O)[C@H]1[C@@H]2C(=O)NC[C@H](O)c1ccccc1"
endpoint_label = "composite z-score"
quantitative_result = 0.169

[[record]]
molecule = "COCC(=C=CC[C@@H](O)c1ccc(OCCO)cc1)CCO"
endpoint_label = "composite z-score"
quantitative_result = 0.17

[[record]]
molecule = "COc1ccc(C(O)C2C=CC3C(=O)N(c4ccccc4)C(=O)C3N2Nc2ccc(C(C)C)cc2)c2ccccc12 (stereo not given)"
endpoint_label = "composite z-score"
quantitative_result = 1.83

[[record]]
molecule = "COCCOC(=O)N1C(=O)[C@@]2(c3cc(C#CCNC(N)=O)ccc31)[C@H](c1ccc(OCCO)cc1)N1[C@H](c3ccccc3)[C@H](c3ccccc3)OC(=O)[C@H]1[C@@H]2C(N)=O"
endpoint_label = "composite z-score"
quantitative_result = 0.715

[[record]]
molecule = "O=C(NCC(O)CO)[C@@]1(CCS(=O)(=O)c2ccccc2)COC(c2ccc(OCCCO)cc2)=N1 (stereo not given in full)"
endpoint_label = "composite z-score"
quantitative_result = 1.1

[[record]]
molecule = "COCC1C2CC[C@H]3C(OCc4ccc(OC)cc4)OC[C@]4(C)[C@H]3C2=C(CN4C(=O)OC(C)(C)C)[C@H](C)C1COC (stereo not given in full)"
endpoint_label = "composite z-score"
quantitative_result = 0.993

[[record]]
molecule = "COCCOC(=O)N1C(=O)[C@@]2(c3cc(C#CCNC(N)=O)ccc31)[C@H](c1ccc(OCCO)cc1)N1[C@H](c3ccccc3)[C@H](c3ccccc3)OC(=O)[C@H]1[C@@H]2C(=O)NC[C@H](O)c1ccccc1"
endpoint_label = "composite z-score"
quantitative_result = 0.506


====

experiment: splicing luciferase reporter signal modulators, primary screen, spliceosome inhibition project, cell-based, HEK293, splice +/- reporter (AID 1101); details: luminescence, 24 h, higher = more signal, called active from +8 up or from −8 down;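 also: HEK293 cells carrying a splicing-competent luciferase reporter gene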
Decision: z-score compared against 0.2; not below it gives MET, below it gives NOT MET.

[[record]]
molecule = "NC(=O)[C@@H]1[C@H]2C(=O)O[C@H](c3ccccc3)[C@H](c3ccccc3)N2[C@H](c2ccc(OCCO)cc2)[C@@]12C(=O)Nc1ccc(C#CCCO)cc12"
assigned_label = "MET"

[[record]]
molecule = "C=CCOC(=O)[C@H]1[C@@H]2C(=O)O[C@@H](c3ccccc3)[C@@H](c3ccccc3)N2[C@@H](c2ccc(OCCOC(=O)[C@H]3C[C@H]4C(=O)N[C@@H](CCCCNC(C)=O)C(=O)N4[C@H]3c3cccc(OCCO)c3)cc2)[C@]12C(=O)Nc1ccc(I)cc12"
assigned_label = "NOT MET"

[[record]]
molecule = "COCCCNC(=O)[C@@]1(c2ccc([N+](=O)[O-])cc2)CC(=O)N(CC23CC4CC(CC(C4)C2)C3)[C@@H]1c1ccc(CO)cc1I"
assigned_label = "MET"

[[record]]
molecule = "CCC(CC)C(O)C1C=CC2C(=O)N(c3ccccc3)C(=O)C2N1Nc1ccc([N+](=O)[O-])cc1 (stereo not drawn)"
assigned_label = "NOT MET"

[[record]]
molecule = "C=C(COC)/C(=C/C[C@H](OC(C)=O)c1cccc(OCCO)c1)c1cnc2ccccc2c1"
assigned_label = "MET"

[[record]]
molecule = "COCCOC(=O)N1C(=O)[C@@]2(c3cc(C#CCNC(N)=O)ccc31)[C@H](c1ccc(O)cc1)N1[C@H](c3ccccc3)[C@H](c3ccccc3)OC(=O)[C@H]1[C@@H]2C(=O)N1CCN(c2ncccn2)CC1"
assigned_label = "MET"

[[record]]
molecule = "C=C[C@@H](C)[C@H](O)c1ccc(OCCO)cc1"
assigned_label = "NOT MET"

[[record]]
molecule = "C=CCN1C(=O)[C@]2(O[C@H](CCO)[C@@H]([Si](C)(C)c3ccc(OC)cc3)[C@@H]2C)c2cc(N3C(=O)COc4ccccc43)ccc21"
assigned_label = "NOT MET"

[[record]]
molecule = "C=C[C@@H](C)[C@@H](OC(=O)Nc1ccc(SC)cc1)c1ccc(OCCO)cc1"
assigned_label = "NOT MET"

[[record]]
molecule = "COCCOC(=O)N1C(=O)[C@@]2(c3cc(C#CCC(C(=O)OC)C(=O)OC)ccc31)[C@H](c1ccc(OCCO)cc1)N1[C@H](c3ccccc3)[C@H](c3ccccc3)OC(=O)[C@H]1[C@@H]2C(=O)Nc1nc2ccccc2s1"
assigned_label = "MET"

[[record]]
molecule = "CCCCC(=C=CC[C@H](O)c1ccc(OCCO)cc1)C[C@H](O)COCc1ccccc1"
assigned_label = "NOT MET"

[[record]]
molecule = "C=CCC(OC(C)=O)[C@@H]1[C@@H](N(Cc2cccc3ccccc23)C(=O)c2ccc(-c3ccccc3)cc2)c2cc(OCCCO)ccc2N1C(=O)c1ccc(-c2ccccc2)cc1 (stereo partly drawn)"
assigned_label = "NOT MET"

[[record]]
molecule = "COC(=O)C(CC#Cc1ccc2c(c1)[C@]1(C(=O)N2)[C@H](C(=O)Nc2nc3ccccc3s2)[C@H]2C(=O)O[C@H](c3ccccc3)[C@H](c3ccccc3)N2[C@@H]1c1ccc(OCCO)cc1)C(=O)OC"
assigned_label = "NOT MET"

[[record]]
molecule = "COc1cc2c(cc1O)C(c1ccc(CN3CCCC3)cc1)N(C)CC2 (stereo not drawn)"
assigned_label = "NOT MET"

[[record]]
molecule = "O=C1C2C=CC(C(O)c3ccc(I)cc3)N(Nc3ccccc3)C2C(=O)N1c1ccccc1 (stereo not drawn)"
assigned_label = "NOT MET"

[[record]]
molecule = "COc1ccc([Si](C)(C)[C@H]2[C@H](CC(=O)N3CCC[C@H]3CO)O[C@@]3(C(=O)N(Cc4ccc(N5CCC5=O)cc4)c4ccccc43)[C@@H]2C)cc1"
assigned_label = "NOT MET"

[[record]]
molecule = "[N-]=[N+]=Nc1ccccc1C[C@]1(C(=O)O)N=C(c2ccc(OCCCO)cc2)O[C@H]1c1ccccc1N=[N+]=[N-]"
assigned_label = "NOT MET"

[[record]]
molecule = "COCCOC(=O)N1C(=O)[C@@]2(c3cc(C#CC4(O)CCCCCC4)ccc31)[C@H](C(=O)N1CCN(c3ncccn3)CC1)[C@H]1C(=O)O[C@H](c3ccccc3)[C@H](c3ccccc3)N1[C@@H]2c1ccccc1OCCO"
assigned_label = "NOT MET"

[[record]]
molecule = "CN1C=C(C(=O)OCCS(C)(=O)=O)C(C(=O)OCCS(C)(=O)=O)=CC(c2ccc(CO)cc2)=CC1c1cccs1 (stereo not drawn)"
assigned_label = "MET"

[[record]]
molecule = "COC(=O)c1c2oc(c1C(=O)OC)C(=O)N1CCC[C@H]1Cn1nncc1CN(Cc1ccccc1)C(=O)N[C@H](CO)CC2"
assigned_label = "MET"

[[record]]
molecule = "O=C1OCCC=C[C@H]2OC34C=CCN(c5ccc(Cl)cc5)C(=O)[C@H]3N(CCCCCCO)C(=O)[C@@H]4C12 (stereo partly drawn)"
assigned_label = "NOT MET"

[[record]]
molecule = "COCCCNC(=O)[C@@]1(Sc2ccc(C)cc2)CC(=O)N(Cc2ccccc2Cl)[C@@H]1c1ccc(CO)cc1I"
assigned_label = "NOT MET"

[[record]]
molecule = "CN1C(=O)C2C=CC(C(O)c3cc(C(F)(F)F)cc(C(F)(F)F)c3)N(Nc3ccccc3)C2C1=O (stereo not drawn)"
assigned_label = "MET"

[[record]]
molecule = "CC(C)CNC(=O)[C@@H]1c2ccccc2C(=O)N(C2CCCCC2)[C@H]1c1ccc(CO)cc1"
assigned_label = "NOT MET"

[[record]]
molecule = "Cc1cccc([C@H]2C[C@H]3C(I)=C[C@@H]2C(=O)[C@]32CO2)c1"
assigned_label = "NOT MET"

[[record]]
molecule = "CCOC(=O)C=Cc1cc(F)ccc1O"
assigned_label = "NOT MET"

[[record]]
molecule = "[N-]=[N+]=Nc1ccccc1C[C@@]1(C(=O)O)N=C(c2ccc(OCCCO)cc2)O[C@@H]1c1ccccc1N=[N+]=[N-]"
assigned_label = "NOT MET"

[[record]]
molecule = "O=C1C2C=CC(C(O)C=Cc3ccc([N+](=O)[O-])cc3)N(Nc3ccccc3)C2C(=O)N1c1ccccc1 (stereo not drawn)"
assigned_label = "MET"


All values here come from PubChem BioAssay.
